molecular target: MERS-CoV 3CLpro (Middle East respiratory syndrome-related coronavirus)
Sequence (K9N7C7 3248-3553): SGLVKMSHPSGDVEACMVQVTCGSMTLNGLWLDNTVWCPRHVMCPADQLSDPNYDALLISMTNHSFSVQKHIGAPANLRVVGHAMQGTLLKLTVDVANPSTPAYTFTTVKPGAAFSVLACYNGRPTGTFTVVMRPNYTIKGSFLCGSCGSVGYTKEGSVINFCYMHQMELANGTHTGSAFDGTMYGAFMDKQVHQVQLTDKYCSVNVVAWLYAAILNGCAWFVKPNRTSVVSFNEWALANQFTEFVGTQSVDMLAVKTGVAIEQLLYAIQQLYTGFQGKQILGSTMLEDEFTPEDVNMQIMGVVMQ
pIC50: −log10 of the molar value.
Assign TRUE to entries whose pIC50 meets or exceeds 7; assign FALSE to the rest.

// below: answered molecules
molecule | category
CC[C@H](C)[C@H](NC(=O)[C@H](F)Cl)C(=O)N1C[C@@H]2CCC[C@@H]2[C@H]1C(=O)NN(C[C@@H]1CCCNC1=O)C(=O)[C@H](F)Cl | TRUE
CC[C@H](C)[C@H](NC(=O)C(F)(F)F)C(=O)N1C[C@H]2[C@@H]([C@H]1C(=O)NN(C[C@H]1CCCNC1=O)C(=O)[C@H](F)Cl)C2(C)C (single isomer, unassigned) [Example 165b] | FALSE
O=C1NCC[C@H]1CN(NC(=O)[C@@H]1[C@H]2CCC[C@H]2CN1C(=O)COc1cccc(F)c1)C(=O)[C@H](F)Cl [Example 88a] | FALSE
CC[C@H](C)[C@H](NC(=O)C1(F)CC1)C(=O)N1C[C@H]2[C@@H]([C@H]1C(=O)NN(C[C@@H]1CCNC1=O)C(=O)[C@@H](F)Cl)C2(C)C | FALSE
CC[C@H](NC(=O)C(F)(F)F)C(=O)N1C[C@@H]2CCC[C@@H]2[C@H]1C(=O)NN(C[C@@H]1CCNC1=O)C(=O)[C@H](F)Cl | TRUE

Task: I'd appreciate it if you could say whether `CC(C)(F)C(=O)N[C@H](C(=O)N1C[C@@H]2CCC[C@@H]2[C@H]1C(=O)NN(C[C@@H]1CCNC1=O)C(=O)[C@H](F)Cl)C(C)(C)C` has pIC50 at least equal to 7.
Result: TRUE

Task: I'd appreciate it if you could say whether `CC(C)(C)[C@H](NC(=O)C1CC(F)(F)C1)C(=O)N1C[C@H]2[C@@H]([C@H]1C(=O)NN(C[C@@H]1CCNC1=O)C(=O)[C@H](F)Cl)C2(C)C` has pIC50 at least equal to 7.
Result: TRUE

Reference for the values: patent US20250059171A1
